Exercise: state measured half-life for each of the compounds provided.
ASSAY NAME: Stability of compound in human CEM/0 cell extract assessed as half life by RP18-HPLC analysis
Format: ADME, tissue-based, CCRF-CEM

Worked cases, answers included:
# return recorded half-life for input CCCCCCCCCC(=O)c1ccc(COP(=O)(O)OP(=O)(O)OP(=O)(O)OC[C@@H]2C=C[C@H](n3cc(C)c(=O)[nH]c3=O)O2)cc1 > 30 h

# return recorded half-life for input CCCCCCCCCCCCCCCCCC(=O)c1ccc(COP(=O)(O)OP(=O)(O)OP(=O)(O)OC[C@@H]2C=C[C@H](n3cc(C)c(=O)[nH]c3=O)O2)cc1 > 30 h

Consider now this further compound.
# return recorded half-life for input CCCCCCCCCC(=O)c1ccc(COP(=O)(O)OP(=O)(O)OP(=O)(O)OC[C@H]2O[C@@H](n3cc(C)c(=O)[nH]c3=O)C[C@@H]2O)cc1 > 30 h
